Where do the numbers come from? From patent EP4803541A1.

// reported dynamic binding capacity at 10% breakthrough for each item listed
ASSAYED_SYSTEM: GH (GH stock solution) (UniProt P01241)
Sequence (P01241 27-217 limits assumed): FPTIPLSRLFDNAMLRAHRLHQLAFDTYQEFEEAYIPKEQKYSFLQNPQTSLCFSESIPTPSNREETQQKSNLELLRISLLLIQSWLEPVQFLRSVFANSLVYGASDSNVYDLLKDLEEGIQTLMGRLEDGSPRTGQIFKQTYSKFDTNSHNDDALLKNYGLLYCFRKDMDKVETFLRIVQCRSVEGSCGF
EXPERIMENT_SUMMARY: affinity chromatography, VHH-conjugated medium loaded with GH stock solution; medium in 0.5M NaOH 6h
METRIC_NAME: dynamic binding capacity at 10% breakthrough

- BINDER: "WT (with tag), unmodified GH single-domain antibody molecule (VHH) VHH: QVQLVESGGGLAQAGGSLRLSCAVSGMPEFARAMGWFRQAPGKERELLAAIEGIGATTYYADSVKGRFTISRDDAANTVLLQMNSLKPDDTAVYYCAAAFSVTIPTRARHWVDWGPGTLVTVSS"
  RECORDED_MEASUREMENT: 5.78
- BINDER: "M67 (Second round) (VHH, Entry already carries A15P; P105Q); tail DDDDK-SGGGGS-HHHHHH) VHH: QVQLVESGGGLAQPGGSLRLSCAVSGMPEFARAMGWFRQAPGKERELLAAIEGIGATTYYADSVKGRFTISRDDAANTVLLQMNSLKPDDTAVYYCAAAFSVTIPTRARHWVDWGQGTLVTVSS"
  RECORDED_MEASUREMENT: 10.2
- BINDER: "M68 (Second round) (VHH, Entry already carries A15P; R19T); tail DDDDK-SGGGGS-HHHHHH) VHH: QVQLVESGGGLAQPGGSLTLSCAVSGMPEFARAMGWFRQAPGKERELLAAIEGIGATTYYADSVKGRFTISRDDAANTVLLQMNSLKPDDTAVYYCAAAFSVTIPTRARHWVDWGPGTLVTVSS"
  RECORDED_MEASUREMENT: 12.2
- BINDER: "M74 (Second round) (VHH, Entry already carries A57D; G134R; R100eE); tail DDDDK-SGGRGS-HHHHHH) VHH: QVQLVESGGGLAQAGGSLRLSCAVSGMPEFARAMGWFRQAPGKERELLAAIEGIGDTTYYADSVKGRFTISRDDAANTVLLQMNSLKPDDTAVYYCAAAFSVTIPTRAEHWVDWGPGTLVTVSS"
  RECORDED_MEASUREMENT: 13.2
- BINDER: "M20 (First round) (VHH) VHH: QVQLVESGGGLAQAGGSLRLSCAVSGMPEFARAMGWFRQAPGKERELVAAIEGIGATTYYADSVKGRFTISRDDAANTVLLQMNSLKPDDTAVYYCAAAFSVTIPTRARHWVDWGPGTLVTVSS"
  RECORDED_MEASUREMENT: 14.3
- BINDER: "M45 (First round) (VHH) VHH: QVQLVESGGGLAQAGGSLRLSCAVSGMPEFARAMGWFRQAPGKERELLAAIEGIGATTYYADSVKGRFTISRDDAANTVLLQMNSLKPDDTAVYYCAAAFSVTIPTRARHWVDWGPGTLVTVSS"
  RECORDED_MEASUREMENT: 7.6
- BINDER: "M78 (Second round) (VHH, Entry already carries A57D; G134R; D102Y); tail DDDDK-SGGRGS-HHHHHH) VHH: QVQLVESGGGLAQAGGSLRLSCAVSGMPEFARAMGWFRQAPGKERELLAAIEGIGDTTYYADSVKGRFTISRDDAANTVLLQMNSLKPDDTAVYYCAAAFSVTIPTRARHWVYWGPGTLVTVSS"
  RECORDED_MEASUREMENT: 13.5
